Numbers sourced from PubChem BioAssay.

# measurement protocol: inhibitors of larval lipid processing in zebrafish, primary screen, whole organism, PED6 fluorescence, gall bladder and intestine (AID 686);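 further: larvae 5 to 7 days old with five fish per well; signal comes from phospholipase A2 cleavage of quenched PED6 carried via bile; overnight exposure to compound and PED6 before scoring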
# setup conditions: Zebrafish larvae PED6 lipid processing, fluorescence scoring; screened at 20 µM (by protocol)
Activity calls are given as the source filed them.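 How the source made its calls: active means a full or partial loss of lipid-probe fluorescence in the fish gall bladder, intestine or both, judged by eye; inactive means no fluorescence loss, or compound toxic to the fish.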
Choose one outcome from this list and give only that: class 1 = active, class 0 = inactive

Cc1cc(C)n(Cc2cc(C)c(Cn3nc(C)cc3C)cc2C)n1 | class 0

// query Entry CCOC(=O)C1CCCN(c2nc3ccccc3nc2C(C#N)C(=O)OCCOC)C1 (configuration not stated) : call = ?
// result class 1

// query Entry CCOC(=O)C1=C(C)NC(=O)NC1c1ccc2c(c1)OCO2 (configuration not stated) : call = ?
// result class 0

// query Entry `COc1ccc(/C=N/n2cncn2)cc1CSc1ccccn1` : call = ?
// result class 0

====

# measurement protocol: inhibitors of TNFa-induced NFkB p65 translocation, primary screen, imaging, HUVEC, MLSMR starter and 10KST1 sets (AID 438);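 further: compound added about 3h40 before a 20 min TNFalpha stimulation; signal is the nuclear over cytoplasmic p65 intensity ratio per well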
# setup conditions: HUVEC TNFa-induced p65 nuclear translocation; at 2 µM, stronger effect = higher value, 0% TNFa-plus-vehicle, 100% no-TNFa wells
Output yes (1) for inhibition not less than -10%; output no (0) otherwise.

Use these answered entries as a reference point.
CCOC(=O)C1=C(C)NC(SCC(=O)Nc2nc(C)cs2)=C(C#N)C1c1cccs1 (stereo not given) | no (0)
CN=C1c2c(-c3ccccc3)c3cc(OC)ccc3n2CCN1C | no (0)
COc1cc([C@@H]2[C@H]3CN(C)CC=C3C(C#N)=C(N)C2(C#N)C#N)cc2c1OCO2 | yes (1)
Nc1[nH]nc2nc(NCc3ccccc3)c3c(c12)CCN(Cc1ccccc1)C3 | no (0)
N#CC1=C(SCC(=O)c2ccccc2)NC2=C(C(=O)CCC2)C1c1ccco1 (stereo not given) | yes (1)
COc1ccc2nc(S(=O)Cc3ncc(C)c(OC)c3C)[nH]c2c1 (stereo not given) | yes (1)
Cc1cccc(C)c1N1C(=O)C2ON(c3ccccc3)C(c3ccncc3)C2C1=O (stereo not given) | yes (1)
O=C(NCCCn1ccnc1)C(Cc1ccccc1)N1C(=O)c2ccccc2C1=O (stereo not given) | yes (1)

// query Exam item: decide whether the reported inhibition for `Cc1nc(SCC(=O)c2ccccc2)c(C#N)c(-c2ccco2)c1C(=O)NCc1ccco1` is at least -10%.
// result yes (1)

// query Exam item: decide whether the reported inhibition for `Cc1ccccc1OCc1nc2ccccc2c(=O)n1NC(=O)c1ccco1` is at least -10%.
// result no (0)

====

# measurement protocol: inhibitors of mutant huntingtin aggregation, primary screen, imaging, exon1htt(103Q)mCFP cells, high-content imaging (AID 483);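 further: compound exposure lasted 3 days before fixation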
# setup conditions: exon1htt(103Q)mCFP cell line, aggregate imaging, at 2 µM; stronger effect = higher value
Hi there, I'd appreciate the recorded inhibition of aggregation for every entry that follows.
Numbers only, in %.

Examples from the recorded data:
CCOC(=O)CCC(=O)O[C@H]1[C@H](O[C@@H]2[C@@H](C)[C@H](O[C@H]3C[C@@](C)(OC)[C@@H](O)[C@H](C)O3)[C@@H](C)C(=O)O[C@H](CC)[C@@](C)(O)[C@H](O)[C@@H](C)C(=O)[C@H](C)C[C@@]2(C)O)O[C@H](C)C[C@@H]1N(C)C | 0.8
COc1ccccc1C1(CC(=O)N2CCOCC2)CCOC(C(C)C)C1 (stereo not drawn) | -10.9

// next item, inhibition of aggregation requested
So, COCCCN1C(=O)C(O)=C(C(=O)c2ccco2)C1c1ccc(Br)cc1 (stereo not drawn) ? Its inhibition of aggregation was -13.4

====

# measurement protocol: inhibitors of Chlamydomonas gravitaxis, primary screen, whole organism, Chlamydomonas reinhardtii, WT vs cilia-less mutant, absorbance, 96-well (AID 463189);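 further: 0% = wild type cc124 cells in DMSO and 100% = ciliumless bld1 mutant cells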
# setup conditions: OD600 absorbance, 2 days, at 10 µM, stronger effect = higher value
Output true (1) for inhibition not less than 10%; output false (0) otherwise.

Use these answered entries as a reference point.
CC(O)Cn1cnc2c1c(=O)n(C)c(=O)n2C (stereo unspecified) | true (1)
O=C(NC1(C(F)(F)F)C(=O)Nc2c1c(=O)[nH]c(=O)n2Cc1ccco1)C1CCCCC1 (stereo unspecified) | true (1)
O=C(O)CCCC(=O)Nc1ccn(-c2ccccc2)n1 | true (1)
COC(=O)C(NC(C)=O)(Nc1nc2ccc(S(C)(=O)=O)cc2s1)C(F)(F)F (stereo unspecified) | false (0)
Cc1ncc([N+](=O)[O-])n1CC(O)CCl (stereo unspecified) | false (0)
Cc1ccc(N2C(=O)CC(N(O)C3CC(=O)N(c4ccc(C)cc4)C3=O)C2=O)cc1 (stereo unspecified) | true (1)

// query Exam item: decide whether the reported inhibition for `Cc1cc(C)cc(-n2c3nc4ccccc4nc3c3c(=O)n(Cc4ccco4)cnc32)c1` is at least 10%.
// result false (0)

// query Exam item: decide whether the reported inhibition for `Cn1cc(Br)cc2nc(C(F)(F)F)nc1-2` is at least 10%.
// result true (1)

// query Exam item: decide whether the reported inhibition for C=CCOC(=O)C1=C(C)OC(N)=C(C#N)C1c1ccoc1 (stereo unspecified) is at least 10%.
// result true (1)

// query Exam item: decide whether the reported inhibition for `Cc1c(-c2cccs2)[n+](=O)c2c(n1[O-])CCCC2` is at least 10%.
// result true (1)

// query Exam item: decide whether the reported inhibition for CC(C(=O)N1CCCCC1)N1C(=O)c2ccccc2C1=O (stereo unspecified) is at least 10%.
// result true (1)

====

# target: Alpha-2C adrenergic receptor (Homo sapiens) (UniProt P18825)
# Sequence (P18825 whole entry, looked up): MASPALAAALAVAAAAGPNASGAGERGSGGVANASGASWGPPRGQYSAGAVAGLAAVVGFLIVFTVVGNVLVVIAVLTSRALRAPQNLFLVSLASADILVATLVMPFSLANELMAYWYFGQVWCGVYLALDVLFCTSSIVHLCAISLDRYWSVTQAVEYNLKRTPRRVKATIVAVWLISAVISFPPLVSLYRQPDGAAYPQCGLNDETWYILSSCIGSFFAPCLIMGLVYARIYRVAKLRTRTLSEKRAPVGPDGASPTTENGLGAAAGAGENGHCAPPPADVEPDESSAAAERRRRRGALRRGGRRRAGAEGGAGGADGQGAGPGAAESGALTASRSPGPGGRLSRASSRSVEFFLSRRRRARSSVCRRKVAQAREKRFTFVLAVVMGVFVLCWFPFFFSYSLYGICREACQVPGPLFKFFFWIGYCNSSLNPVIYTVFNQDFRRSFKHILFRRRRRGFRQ
# measurement protocol: modulators of alpha2C/GIRK thallium flux, primary screen, cell-based, HEK293 alpha2C/GIRK1/2 (AID 624);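 further: slope of fluorescence ratio to pre-addition baseline per second over 15 to 24 s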
# setup conditions: thallium flux BTC fluorescence, at 10 µM, actives lie on both sides
measure name: slope
Answers are plain numbers.

COc1cc(N2C(=O)CSC23C(=O)Nc2ccccc23)cc(OC)c1OC (stereo unspecified) | 0.00524
CCCCOc1ccc(CSC(CC(=O)O)C(=O)O)cc1 (stereo unspecified) | 0.00541
COc1ccc(C2=Nn3c(nnc3-c3ccccc3)SC2)cc1OC | 0.00597
CC(C)C[C@H](NC(=O)[C@@H]1O[C@H]1C(=O)O)C(=O)NCCCCN=C(N)N | 0.00515
Cc1cc(C)c2nc(SCCC#N)nc(C)c2c1 | 0.00476

Take each entry in turn and give its slope.
1. CC1(C)Cc2c(C#N)c(NCC3CCCO3)nc(-c3ccco3)c2CO1 (stereo unspecified)
2. COC(=O)C1=C(C)NC(C)=C(C(=O)OC)C1c1ccccc1[N+](=O)[O-]
3. COc1cc(/C=N/n2c(C)nnc2C)cc(OC)c1OC
4. CN(C)S(=O)(=O)Nc1ccc(NS(=O)(=O)N(C)C)c(S(=O)(=O)c2ccccc2)c1

// result
0.00551
0.00935
0.00638
0.00381

Take each entry in turn and give its slope.
1. O=C(c1cccc(Cl)c1)N1CCN(C(=O)c2ccccc2F)CC1
2. CCOC(=O)c1c(CNCCN(CC)CC)n(C)c2cc(Br)c(OC)cc12

// result
1. 0.00888
2. 0.00617

====

# measurement protocol: inhibitors of Chlamydomonas gravitaxis, primary screen, whole organism, Chlamydomonas reinhardtii, WT vs cilia-less mutant, absorbance, 96-well (AID 463189);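 further: 0% = wild type cc124 cells in DMSO and 100% = ciliumless bld1 mutant cells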
# setup conditions: OD600 absorbance, 2 days, at 10 µM, stronger effect = higher value
Hi there, I'd appreciate the recorded inhibition for every entry that follows.
Give bare numbers, in %.

Examples from the recorded data:
COC(=O)CSc1ncnc2c1sc1nc(-c3ccco3)c3c(c12)CC(C)(C)OC3 | -8.07
CN(C)c1ccc(C=NCC2(O)CCOC(C)(C)C2)cc1 (stereo not drawn) | 7.69
O=C(O)c1c[nH]c2ccc(S(=O)(=O)N3CCOCC3)cc12 | 8.59
CC(=O)[C@H]1[C@H](C#N)C[C@H]2[C@@H]3CC=C4C[C@@H](O)CC[C@]4(C)[C@H]3CC[C@@]21C | 14.4
Cc1ccc(-n2c(N)c(C(N)=O)sc2=S)cc1 | 21.1

Take each entry in turn and give its inhibition.
1. O=C(NC1CCS(=O)(=O)C1)N1CCCCC1 (stereo not drawn)
2. CCCOc1ccc(C2NC(=O)NC2=O)cc1 (stereo not drawn)
3. Nc1ccc(S(=O)(=O)Nc2ccccn2)cc1
4. O=C(O)CCCCCN1C(=O)CCC1=O
5. Cc1cc(NCC2CCCO2)n2c(nc3ccccc32)c1C#N (stereo not drawn)
6. Cn1c(=O)c2c(nc(N3CCN(Cc4ccccc4)CC3)n2CC(=O)c2ccccc2)n(C)c1=O
7. CCOC(=O)CC(=O)CSc1nc(N)c(C#N)c(-c2ccc(Cl)cc2)c1C#N

// result
1: -28.4; 2: -17; 3: 4.41; 4: 7.42; 5: -17.8; 6: -14.6; 7: -7.76

Take each entry in turn and give its inhibition.
1. COc1cc(-c2nn3c(COc4ccccc4)nnc3s2)cc(OC)c1OC
2. CCN1CCc2c(C#N)c(NCc3ccccc3)nc(NCCO)c2C1
3. C=CCOn1c(=O)c(-c2cc3ccccc3o2)[n+]([O-])c2ccccc21
4. CCOC(=O)C1/C(=N\O)CC(C)(O)C(C(=O)OCC)C1c1ccc(OC)c(OC)c1 (stereo not drawn)
5. CCc1ccc(NC(=O)CSC2=C(C#N)C(c3ccco3)C3=C(CCCC3=O)N2)cc1 (stereo not drawn)

// result
-11
-0.503
18.3
1.71
-1.64
